- System: EBC-1
- protocol notes: relative viability (nuclei count vs DMSO), 5 days (fraction); higher = more cells survive
- protocol conditions: first compound 2.53 µM
Answer each item with its documented relative viability.

Please review the following examples before continuing.
compound	relative viability
O=c1[nH]c2ccccc2n1C1CCN(CCCC(c2ccc(F)cc2)c2ccc(F)cc2)CC1 [Pimozide] + COc1cc2c(Oc3ccc(NC(=O)C4(C(=O)Nc5ccc(F)cc5)CC4)cc3F)ccnc2cc1OCCCN1CCOCC1 [Foretinib] (partner 0.25 µM)	0.104
O=c1[nH]c2ccccc2n1C1CCN(CCCC(c2ccc(F)cc2)c2ccc(F)cc2)CC1 [Pimozide] + CC(C)C[C@H](NC(=O)[C@H](Cc1ccccc1)NC(=O)c1cnccn1)B(O)O [Bortezomib] (partner 0.002 µM)	0.439
O=c1[nH]c2ccccc2n1C1CCN(CCCC(c2ccc(F)cc2)c2ccc(F)cc2)CC1 [Pimozide] + CS(=O)(=O)N1CCN(Cc2cc3nc(-c4cccc5[nH]ncc45)nc(N4CCOCC4)c3s2)CC1 [Pictilisib] (partner 1 µM)	0.269

Quick one: give me relative viability for each item below, same order please.
1. O=c1[nH]c2ccccc2n1C1CCN(CCCC(c2ccc(F)cc2)c2ccc(F)cc2)CC1 [Pimozide] + CC1(C)CCC(c2ccc(Cl)cc2)=C(CN2CCN(c3ccc(C(=O)NS(=O)(=O)c4ccc(N[C@H](CCN5CCOCC5)CSc5ccccc5)c(S(=O)(=O)C(F)(F)F)c4)cc3)CC2)C1 [Navitoclax] (partner 0.5 µM)
2. Cc1cnc(-c2cnc(NCCNc3ccc(C#N)cn3)nc2-c2ccc(Cl)cc2Cl)[nH]1 + C[C@]1(O)C[C@@H](c2nc(-c3ccc4ccc(-c5ccccc5)nc4c3)c3c(N)nccn32)C1 [Linsitinib] (partner 1 µM)

0.309
0.819
